Experiment: COS7 lysate on small-molecule microarray, probe aHis, 635 nm (AID 1123);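 note: z-score combines 667nm fluorescence intensity with signal-to-noise per printed compound spot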
Conditions: COS7 cell lysate, fluorescence, higher = more signal
assay-readout: composite z-score

Examples with answers:
>>> assay_value("O=C1C2=CC[C@H]3C(=O)N(C[C@@H]4CCCO4)C(=O)[C@H]3[C@H]2[C@H](O)[C@@H]2O[C@H]12")
-0.534
>>> assay_value("CON=C[C@@H](OC)[C@H](C)C=CCC(=O)OC")
0.157
>>> assay_value("CC(C)=CCCC(C)=CCON=C1[C@H]2CCn3c(=O)n(-c4ccccc4)c(=O)n3[C@H]2[C@H](O)[C@@H]2O[C@H]12")
1.18

Prompt line: composite z-score for Cc1ccc2[nH]c3nc(CCCn4ccnc4-c4ccccc4)nnc3c2c1 ?
Response line: 0.656

Prompt line: Can you share its composite z-score? I mean this molecule: CCN1C(=O)[C@H]2[C@H]3[C@H](O)[C@H](O)CC(=NOC[C@@H](O)COCc4ccco4)[C@H]3CC[C@H]2C1=O
Response line: -0.303

Prompt line: Item under review: CC(CCN1CCCc2nc(C)c(C)cc21)=NOC[C@@H](O)COCc1ccco1 . Reported composite z-score?
Response line: 1.37

Prompt line: Fill blank: measured composite z-score of the molecule C[C@@H]1CC[C@@H](C(=O)O)N[C@H]1c1cccc(N2CCOCC2)c1 is ____.
Response line: 0.531

Prompt line: I'd like to know its composite z-score. The molecule in question is C=CC[C@@H]1C=C[C@H](ON=C(C)CCN2CCCCc3nc(C)c(C)cc32)[C@@H](CO)O1
Response line: 0.588
